- Test system: Rattus norvegicus
- test details: Gastroprotective activity against cold restraint-induced ulceritis in Wistar rat at 25 mg/kg, po pretreated before cold restraination measured after 2 hrs
- Type: functional, organism-based
- Set-up: dose 25 mg/kg
Calls of active or inactive are those of the source. The rule behind the calls is not given here.
observed property: Activity

As a guide, the following entries are already answered.
>  <smiles structure>
O=c1cc(-c2ccccc2)oc2cc(O)cc(O)c12

>  <result>
Active

$$$$
>  <smiles structure>
COc1cc(O)c2c(=O)cc(-c3ccccc3)oc2c1

>  <result>
inactive

$$$$
>  <smiles structure>
COc1ccc(-c2cc(=O)c3c(O)cc(OC)cc3o2)cc1

>  <result>
inactive

$$$$
>  <smiles structure>
COc1c(O)cc2oc(-c3ccccc3)cc(=O)c2c1O

>  <result>
Active

$$$$
>  <smiles structure>
COc1c(O)cc2c(c1O)C(=O)C[C@@H](c1ccccc1)O2

>  <result>
Active

$$$$

Field request: Activity | item: "COc1cc(O)c2c(=O)cc(-c3c(OC)cccc3O[C@H]3O[C@@H](CO)[C@H](O)[C@@H](O)[C@@H]3O)oc2c1"
inactive
